# test_details: cytosolic pH regulators acting via V-ATPase – S. cerevisiae, pHLuorin, HTS validation (AID 504600);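 note: plate controls were DMSO for no effect and reference compound for full effect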
# settings: V-ATPase proton transport, at 10 µM, active compounds read high
Listed below: response values for each entry.

[
  {
    "molecule": "O=C(/C=C/c1c[nH]c2ccccc12)c1cccc2ccccc12",
    "response [%]": -1.5
  },
  {
    "molecule": "NC(N)=N/N=C/c1cccc(Cl)c1Cl",
    "response [%]": -0.64
  },
  {
    "molecule": "CC(=O)N1CCN(c2ccc(OC[C@H]3CO[C@](Cn4ccnc4)(c4ccc(Cl)cc4Cl)O3)cc2)CC1",
    "response [%]": -2.33
  },
  {
    "molecule": "COc1cccc(NC(=O)C2CC(=O)OC23CCOC(C)(C)C3)c1 (configuration not stated)",
    "response [%]": -0.08
  },
  {
    "molecule": "C=C(C)C(=O)Nc1ccc(NC(C)C)cc1",
    "response [%]": -7.05
  },
  {
    "molecule": "CCOC(=O)c1oc2cc(O)cc(C)c2c(=O)c1-c1cscn1",
    "response [%]": -5.59
  },
  {
    "molecule": "CCCC(=O)O[C@]1(C(=O)COC(C)=O)CC[C@H]2[C@@H]3C[C@H](F)C4=CC(=O)C=C[C@]4(C)[C@@]3(F)[C@@H](O)C[C@@]21C",
    "response [%]": -0.33
  },
  {
    "molecule": "CN1CCc2c(n(CC(O)CN(CCO)CCO)c3ccccc23)C1=O (configuration not stated)",
    "response [%]": -1.82
  },
  {
    "molecule": "CN(C)c1ccc(Nc2c3c4c(cccc4n(C)c2=O)C(=O)c2ccccc2-3)cc1",
    "response [%]": -0.9
  },
  {
    "molecule": "CN(C)CCC=C1c2ccccc2CCc2ccccc21",
    "response [%]": 6.98
  },
  {
    "molecule": "CC1(C#CC[N+]2(C)CCCCC2)CCC2C(O1)c1ccccc1OC2(C)C (configuration not stated)",
    "response [%]": 2.59
  },
  {
    "molecule": "COCCOC(=O)C1=C(C)NC(C)=C(C(=O)OC(C)C)C1c1cccc([N+](=O)[O-])c1 (configuration not stated)",
    "response [%]": 8.68
  },
  {
    "molecule": "COc1cc(C)nc(-n2nc(C)cc2OC)n1",
    "response [%]": 48.8
  },
  {
    "molecule": "O=c1oc2c(CN3CCCCC3)c(O)ccc2c2c1CCCCC2",
    "response [%]": 3.83
  },
  {
    "molecule": "O=C(COc1cc(O)c2c(=O)c3ccccc3oc2c1)OCc1ccccc1",
    "response [%]": 4.03
  },
  {
    "molecule": "CN(Cc1c(C(=O)N(C)Cc2ccccc2)nc2ccccn12)CC1Cc2ccccc2O1 (configuration not stated)",
    "response [%]": -0.37
  },
  {
    "molecule": "CCc1cc2c(=O)c(-c3nc(C)cs3)c(CCCC(=O)O)oc2cc1O",
    "response [%]": -0.76
  },
  {
    "molecule": "Cc1nc2ccccn2c(=O)c1CCN1CCC(C(=O)c2ccc(F)cc2)CC1",
    "response [%]": -1.11
  },
  {
    "molecule": "CC1(C)C(=O)OC(c2cccs2)C2(CCCCC2)C1=O (configuration not stated)",
    "response [%]": -2.62
  },
  {
    "molecule": "COc1ccc(OC(C)C(=O)Nc2ccccc2F)cc1 (configuration not stated)",
    "response [%]": 0.03
  },
  {
    "molecule": "COc1ccc(C2NCCC3(O)CCCCC23)c(OC)c1OC (configuration not stated)",
    "response [%]": -2.26
  },
  {
    "molecule": "COc1ccccc1N=CC1=C(O)CC(c2ccccc2)CC1=O (configuration not stated)",
    "response [%]": 4.13
  },
  {
    "molecule": "Cc1ncc(CN2CCC(CO)(CCc3ccccc3)CC2)s1",
    "response [%]": 0.58
  },
  {
    "molecule": "CCOC(=O)C(NC(C)=O)C(O)c1ccc([N+](=O)[O-])cc1 (configuration not stated)",
    "response [%]": -1.89
  },
  {
    "molecule": "COc1c(C=O)c(CCN(C)C(=O)c2ccc(F)cc2)cc2c1OCO2",
    "response [%]": 2.09
  },
  {
    "molecule": "CC1=NN(c2ccccc2)C(=O)C1",
    "response [%]": 0.56
  },
  {
    "molecule": "COc1ccc(CCn2c(C)nc3c(c(=O)c4ccccc4n3C)c2=O)cc1",
    "response [%]": 7.85
  },
  {
    "molecule": "CC(C)(C)OC(=O)COc1cc(OCC(=O)OC(C)(C)C)c2c(=O)cc(-c3ccccc3)oc2c1",
    "response [%]": 2.77
  },
  {
    "molecule": "COCCn1c(SCCOc2ccccc2)nc2ccccc2c1=O",
    "response [%]": 0.42
  },
  {
    "molecule": "O=Cc1ccc(O)c(O)c1",
    "response [%]": -5.24
  },
  {
    "molecule": "COc1ccc(/C=C2\\CC/C(=C\\c3ccc(OC)c(OC)c3)C2=O)cc1OC",
    "response [%]": -0.5
  },
  {
    "molecule": "CCO/C([O-])=N/c1c[n+](N2CCOCC2)no1",
    "response [%]": 0.46
  },
  {
    "molecule": "CCN(CCCCOC(=O)c1ccc(OC)c(OC)c1)C(C)Cc1ccc(OC)cc1 (configuration not stated)",
    "response [%]": 0.12
  },
  {
    "molecule": "COc1ccc(C2c3c(n[nH]c3C)CC(C)(O)C2C(C)=O)cc1OC (configuration not stated)",
    "response [%]": 0.84
  },
  {
    "molecule": "O=C(COc1ccc(F)cc1)OCCN1CCOCC1",
    "response [%]": 21.8
  },
  {
    "molecule": "CCn1cc(C(=O)O)c(=O)c2ccc(C)nc21",
    "response [%]": -3.3
  },
  {
    "molecule": "Cc1ccc(OCc2nc(-c3cccnc3)no2)cc1C",
    "response [%]": 3.35
  },
  {
    "molecule": "Cc1[nH]nc(-c2ccc(O)cc2O)c1Oc1ccccc1",
    "response [%]": -4.45
  },
  {
    "molecule": "O=C(COc1ccc2ccc(=O)oc2c1)c1ccccc1",
    "response [%]": -1.1
  },
  {
    "molecule": "COc1cc(C=NCC2OCCc3ccccc32)cc(OC)c1 (configuration not stated)",
    "response [%]": 1.44
  },
  {
    "molecule": "Cc1nc(NC(CC(C)C)C(=O)O)c2nc(C)oc2n1 (configuration not stated)",
    "response [%]": 3.4
  },
  {
    "molecule": "Cc1ccccc1C(=O)NNc1ncnc2c1cnn2C",
    "response [%]": -4.35
  },
  {
    "molecule": "c1ccc(SSc2ccccc2)cc1",
    "response [%]": 3.24
  },
  {
    "molecule": "CCCCOn1c(C)c(C(C)=O)c2c3no[n+]([O-])c3ccc21",
    "response [%]": 5.1
  },
  {
    "molecule": "CC(=O)c1cccc(NC(=O)N[C@@H](CC(C)C)C(=O)O)c1",
    "response [%]": -2.05
  },
  {
    "molecule": "Cc1cccc(C(=O)c2cccc(C)c2)c1",
    "response [%]": 1.1
  },
  {
    "molecule": "CN1C2CCC1CC(OC(c1ccccc1)c1ccccc1)C2 (configuration not stated)",
    "response [%]": 1.18
  }
]
